From: paper PMC10786891

# experimental.system: T1, EsCas13d, nuclease-dead (Eubacterium siraeum, UniProt B0MS50, R295A;H300A;R849A;H854A)
# T1 sequence: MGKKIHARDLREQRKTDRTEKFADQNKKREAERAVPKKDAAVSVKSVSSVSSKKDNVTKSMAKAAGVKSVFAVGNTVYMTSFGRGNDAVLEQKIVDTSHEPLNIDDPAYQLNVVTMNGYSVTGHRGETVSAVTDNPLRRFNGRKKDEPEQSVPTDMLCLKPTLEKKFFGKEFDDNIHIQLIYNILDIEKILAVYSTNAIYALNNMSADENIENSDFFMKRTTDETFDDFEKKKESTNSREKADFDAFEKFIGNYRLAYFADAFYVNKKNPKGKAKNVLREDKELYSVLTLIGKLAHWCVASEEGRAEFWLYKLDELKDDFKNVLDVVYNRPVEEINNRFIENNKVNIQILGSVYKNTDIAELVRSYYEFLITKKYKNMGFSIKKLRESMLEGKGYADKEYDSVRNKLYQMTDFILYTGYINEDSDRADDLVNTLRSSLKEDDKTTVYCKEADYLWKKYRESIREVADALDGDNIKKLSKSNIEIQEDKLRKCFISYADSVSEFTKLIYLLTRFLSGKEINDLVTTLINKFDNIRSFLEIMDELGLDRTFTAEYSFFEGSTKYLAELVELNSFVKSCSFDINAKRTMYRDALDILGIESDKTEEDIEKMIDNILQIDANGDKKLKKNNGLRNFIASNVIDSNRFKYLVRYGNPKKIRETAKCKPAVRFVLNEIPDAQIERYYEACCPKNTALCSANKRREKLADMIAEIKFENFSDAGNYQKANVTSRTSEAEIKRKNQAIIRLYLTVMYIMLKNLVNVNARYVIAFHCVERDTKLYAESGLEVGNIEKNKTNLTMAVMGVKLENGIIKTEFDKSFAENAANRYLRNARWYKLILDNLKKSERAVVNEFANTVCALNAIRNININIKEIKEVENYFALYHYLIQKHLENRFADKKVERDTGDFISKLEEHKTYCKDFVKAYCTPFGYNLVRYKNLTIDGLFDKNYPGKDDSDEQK
# procedure.text: crRNA (strand 1, pre-loaded); Mg2+; 40 mM Tris-HCl pH 7.5, 150 mM NaCl, 6 mM MgCl2, 1 mM DTT, 0.1% Tween-20, 0.2 mg/ml BSA; 25 C; 10 min per concentration, then washed
# measurement.setup: tags: His6-TwinStrep-SUMO cleaved; N-terminal SNAP kept (SNAP-Surface 488); label: 3' end held by stalled T7 RNA polymerase
Quick reference: pKd of the listed items.
In plain terms, pKd is the concentration in mol/L turned into minus its base-10 logarithm.

target 2 MT 5'PFS UUA 3'PFS UCA (mixed) RNA 1: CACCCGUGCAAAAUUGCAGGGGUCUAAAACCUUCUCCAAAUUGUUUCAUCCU RNA 2: GGGAAUGGAUCCACAUCUACGAAUUCUUAAGGAUGAAACAAUUUGGAGAAGUCAAGAUCGGAAGAGCACACGU; 7.70
target 1 insA 3' of 12,insA 3' of 7 (mixed) RNA 1: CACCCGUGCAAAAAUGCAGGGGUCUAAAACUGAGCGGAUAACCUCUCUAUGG RNA 2: GGGAAUGGAUCCACAUCUACGAAUUCGUACCAUAGAGAGGAUUAUCACGCUCACCGAGAUCGGAAGAGCACACGU; 7.59
target 1 MT 5'PFS GUA 3'PFS GUU (mixed) RNA 1: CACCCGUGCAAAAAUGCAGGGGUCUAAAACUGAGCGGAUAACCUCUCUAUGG RNA 2: GGGAAUGGAUCCACAUCUACGAAUUCGUACCAUAGAGAGGUUAUCCGCUCAGUUAGAUCGGAAGAGCACACGU; 7.94

--- query ---
IN: Which measured pKd value corresponds to target 1 insC 3' of 13,insC 3' of 1 (mixed) RNA 1: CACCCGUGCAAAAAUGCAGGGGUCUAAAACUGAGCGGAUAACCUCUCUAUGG RNA 2: GGGAAUGGAUCCACAUCUACGAAUUCGUACCAUAGAGAGCGUUAUCCGCUCACCCGAGAUCGGAAGAGCACACGU ?
OUT: 8.05
